Each entry below carries its recorded inhibition.
- System tested: N-glycosylase/DNA lyase (Homo sapiens);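 note: OGG1 cleavage of a quenched duplex DNA oligonucleotide, coupled to APE1 for strand incision, read as fluorescence at 594 nm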
- Experimental setup: Compound Concentration 10.0 uM, Hit No
The number alone won't do; follow it with the unit.

Molecule	inhibition
CC(C)C[C@H](NC(=O)c1cc2ccccc2s1)C(=O)N1CCN(C(=O)[C@H](CO)NS(=O)(=O)c2ccc(Cl)cc2Cl)CC1	-7.14%

Prompt line: Returns the measured inhibition for the input molecule. Input: `Cc1cc(C)cc(-c2cnc3cc(Cl)c(-c4cccc(O)c4)cc3c2OCCCN)c1`
Response line: -3.25%

Prompt line: Returns the measured inhibition for the input molecule. Input: CCOC(=O)C1Cc2ccccc2CN1C(=O)c1ccc(SC)s1 (centres undefined)
Response line: 13.5%

Prompt line: Returns the measured inhibition for the input molecule. Input: `CN(C)[C@@H]1CCN(c2cc(-c3ccccc3)nc3ccnn23)C1`
Response line: 7.46%

* * *

- System tested: DNA-3-methyladenine glycosylase (Homo sapiens) (UniProt P29372)
- Sequence (P29372 whole entry): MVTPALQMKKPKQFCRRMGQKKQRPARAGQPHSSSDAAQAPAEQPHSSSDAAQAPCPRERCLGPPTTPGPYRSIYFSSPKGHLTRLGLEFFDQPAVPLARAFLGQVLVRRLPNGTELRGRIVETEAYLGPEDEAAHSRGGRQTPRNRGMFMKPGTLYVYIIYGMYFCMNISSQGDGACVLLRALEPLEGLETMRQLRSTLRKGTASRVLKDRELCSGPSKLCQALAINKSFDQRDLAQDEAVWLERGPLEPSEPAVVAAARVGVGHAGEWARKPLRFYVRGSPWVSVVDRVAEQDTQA
- Experimental setup: Compound Concentration 10.0 uM, Hit No
Each entry below carries its recorded inhibition.
Response body: numeric value in %, unit text excluded.

Compound	Display unit	inhibition
CCCCC/C=C\C/C=C\C/C=C\C/C=C\CCCC(=O)OC(CO)CO	%	3.34
COc1ccc2cc(S(=O)(=O)N[C@H](CC(=O)N[C@H](Cc3ccc(CN4[C@H](C)CCC[C@@H]4C)cc3)C(=O)N(C)C(C)C)c3ccc4c(c3)OCO4)ccc2c1	%	30
CC(CNS(=O)(=O)C(C)C)c1ccc(-c2ccc(C#N)cc2)cc1 (centres undefined)	%	23.5
Cc1cc(NC(=O)Nc2ccccc2)n(-c2ccccc2)n1	%	3.86
CN(C)CCCc1cc(C(=O)Nc2ccc(-c3ccncc3)cc2)ccc1O	%	5.48
COCCCN1CCC(NC(=O)c2cc(Cl)c(N)c3c2OCC3)CC1	%	8.09

Prompt line: Returns the measured inhibition for the input compound. Input: `Nc1nc2c(c(N3CCNCC3)n1)CCC1=C2[C@@H]2CCCC[C@@H]2O1`
Response line: -2.48

Prompt line: Returns the measured inhibition for the input compound. Input: `Cc1cc(C)cc(C(=O)N(C)[C@H](Cc2ccc(-c3ccccc3)cc2)C(=O)N[C@@H](Cc2c[nH]c3ccccc23)C(=O)O)c1`
Response line: 4.38

Prompt line: Returns the measured inhibition for the input compound. Input: `COc1ccccc1-n1nc(C2CC(C)(C)OC(C)(C)C2)cc1-c1ccc(Cl)cc1`
Response line: -7.01

Prompt line: Returns the measured inhibition for the input compound. Input: `CC(C)NC(=O)c1ccc(C#Cc2ccncc2)cn1`
Response line: -5.61

Prompt line: Returns the measured inhibition for the input compound. Input: `CCCn1c(=O)c2[nH]c(-c3ccc(OCC(=O)Nc4ccc(C#N)cc4)cc3)nc2n(CCC)c1=O`
Response line: -6.3

Prompt line: Returns the measured inhibition for the input compound. Input: `C=CC(=O)Nc1cccc(C(=O)Nc2ccc(Nc3cc(-c4[nH]c(S)nc4C)ccn3)cc2)c1`
Response line: 19.6

Prompt line: Returns the measured inhibition for the input compound. Input: `Cc1nc(-c2ccc(C(F)(F)F)cc2)sc1COc1ccc([C@H](CC(=O)O)c2ccon2)cc1`
Response line: 3.92

Prompt line: Returns the measured inhibition for the input compound. Input: `Clc1cccc(-n2nnnc2NCc2ccccc2Oc2ccccn2)c1Cl`
Response line: 12.9

* * *

Each entry below carries its recorded inhibition.
- System tested: Endonuclease 8-like 2 (Homo sapiens);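 note: fluorescence at 594 nm reports NEIL2 cutting and release of a quenched double-stranded DNA oligo substrate, reduced signal read as inhibition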
- Sequence (whole entry): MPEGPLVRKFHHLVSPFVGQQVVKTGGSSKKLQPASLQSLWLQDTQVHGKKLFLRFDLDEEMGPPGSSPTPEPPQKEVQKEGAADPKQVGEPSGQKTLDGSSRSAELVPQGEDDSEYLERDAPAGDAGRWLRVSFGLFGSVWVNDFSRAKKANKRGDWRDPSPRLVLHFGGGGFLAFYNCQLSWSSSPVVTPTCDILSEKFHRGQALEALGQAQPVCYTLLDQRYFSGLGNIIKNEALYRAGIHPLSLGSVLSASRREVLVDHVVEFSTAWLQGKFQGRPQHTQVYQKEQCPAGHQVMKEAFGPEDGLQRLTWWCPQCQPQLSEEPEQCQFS
- Experimental setup: Compound Concentration 10.0 uM, Hit No
Response body: numeric value in %, unit text excluded.

Smiles str	Display unit	inhibition
CCC(=O)N[C@@H]1CC[C@H](C(=O)N(C)c2ccc(-c3nc4ccccc4o3)cc2)C1	%	4.61

Prompt line: Returns the measured inhibition for the input molecule. Input: `COc1ccc(-c2ccc3cc(C(=O)O)ccc3c2)cc1C12CC3CC(CC(C3)C1)C2`
Response line: -6.1

Prompt line: Returns the measured inhibition for the input molecule. Input: `CCc1nc2c(C)cc(C)nc2[nH]1`
Response line: 6.75

Prompt line: Returns the measured inhibition for the input molecule. Input: `Cc1cc(-c2ccnc(Nc3cnn(C)c3)n2)ccc1CNC(=O)N1CC(OC(C)C)C1`
Response line: -6.23

Prompt line: Returns the measured inhibition for the input molecule. Input: `OCCN1CCN(CCCN2c3ccccc3Sc3ccc(Cl)cc32)CC1`
Response line: 12.5

Prompt line: Returns the measured inhibition for the input molecule. Input: `COc1ccncc1C(=O)NC(=O)Nc1ccc(-c2ccccc2)c(C(F)(F)F)c1`
Response line: -8.22

Prompt line: Returns the measured inhibition for the input molecule. Input: `CC(C)c1cc(Oc2c(Cl)cc(-n3nc(C#N)c(=O)[nH]c3=O)cc2Cl)n[nH]c1=O`
Response line: 7.67

Prompt line: Returns the measured inhibition for the input molecule. Input: `CCOC(=O)c1cnn(-c2ccc(NC(=O)C(Cl)=C(Cl)Cl)cc2)c1C(F)(F)F`
Response line: 2.71

* * *

- System tested: Endonuclease 8-like 1 (Homo sapiens);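 note: fluorescence at 594 nm from quenched duplex DNA oligonucleotides released by NEIL1 cleavage and strand separation, reported as reduction of this enzyme activity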
- Experimental setup: Compound Concentration 10.0 uM, Hit No
Property: inhibition (%)
Response body: numeric value in %, unit text excluded.

Prompt line: Returns the measured inhibition for the input molecule. Input: `CC[C@H](C(=O)Nc1ccccc1N1CCCC1)c1ccccc1`
Response line: 13.8

* * *

- System tested: Uracil-DNA glycosylase (Homo sapiens);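 note: UNG excision on a quenched double-stranded DNA oligo probe, with APE1 added for strand incision and turnover, read as fluorescence at 594 nm as strands separate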
- Experimental setup: Compound Concentration 10.0 uM, Hit No
Property: inhibition (%)
Response body: numeric value in %, unit text excluded.

# example entries with known answers
Compound	inhibition (%)
Cc1cc(C)c(N)c(C#Cc2cccc(F)c2)n1	-6.05
CC[C@@H](C[C@H]1COC(N)=N1)c1ccccc1	-3.91
CN1CCN(c2cc(-c3ccccc3)nc(N)n2)CC1	-9.1

Prompt line: Query the reported inhibition for Uracil-DNA glycosylase (Homo sapiens); item: `C[C@@H](c1cccc(CN)c1)n1cc(Cl)cc(C(N)=O)c1=N`
Response line: -0.0293

Prompt line: Query the reported inhibition for Uracil-DNA glycosylase (Homo sapiens); item: `O=C(NCC1(N2CCN(c3ccccc3)CC2)CCOCC1)c1cccnc1Sc1ccccc1`
Response line: 1.03

Prompt line: Query the reported inhibition for Uracil-DNA glycosylase (Homo sapiens); item: CC(C)NCC(O)COc1cccc2[nH]ccc12 (centres undefined)
Response line: -6.49

Prompt line: Query the reported inhibition for Uracil-DNA glycosylase (Homo sapiens); item: `Cc1c(NC(=O)COc2ccc(Cl)cc2C(=O)c2cc(F)cc(C(F)(F)F)c2)ccc(C(=O)O)c1F`
Response line: 4.37

Prompt line: Query the reported inhibition for Uracil-DNA glycosylase (Homo sapiens); item: `CN1CCN(c2nc3cc(C(F)(F)F)ccc3n3cccc23)CC1`
Response line: 0.522

Prompt line: Query the reported inhibition for Uracil-DNA glycosylase (Homo sapiens); item: `CC[C@@H]1C(=O)N(C)c2cnc(Nc3ccc(C(=O)NC4CCN(C)CC4)cc3OC)nc2N1C1CCCC1`
Response line: 13.3

Prompt line: Query the reported inhibition for Uracil-DNA glycosylase (Homo sapiens); item: `CC(=O)Nc1nc(C)c(S(=O)(=O)Nc2ccc(C(O)(C(F)(F)F)C(F)(F)F)cc2)s1`
Response line: 5.29

Prompt line: Query the reported inhibition for Uracil-DNA glycosylase (Homo sapiens); item: `Cn1c(C2(NC(=O)c3ccc(NCC4CCCCC4)nc3)CCC2)nc2ccc(/C=C/C(=O)O)cc21`
Response line: 7.23

Prompt line: Query the reported inhibition for Uracil-DNA glycosylase (Homo sapiens); item: `O=C(O)c1ccc(C(=O)N[C@@H](c2ccc(OC(F)(F)F)c(F)c2)c2ncccc2F)nc1`
Response line: -9.18

Prompt line: Query the reported inhibition for Uracil-DNA glycosylase (Homo sapiens); item: `N[C@@]1(C(=O)O)CC[C@H]2[C@H](C(=O)O)[C@H]21`
Response line: -8.38

Prompt line: Query the reported inhibition for Uracil-DNA glycosylase (Homo sapiens); item: `COc1ccc([C@@H]2Sc3ccccc3N(CCN(C)C)C(=O)[C@@H]2OC(C)=O)cc1`
Response line: -4.36

Prompt line: Query the reported inhibition for Uracil-DNA glycosylase (Homo sapiens); item: `O=C(NNS(=O)(=O)c1ccccc1F)c1cc(F)cc(-c2ccccn2)c1`
Response line: 6.14

Prompt line: Query the reported inhibition for Uracil-DNA glycosylase (Homo sapiens); item: `COc1ccc(CCCN2CCC(COC(c3ccccc3)c3ccccc3)CC2)cc1`
Response line: -1.12

Prompt line: Query the reported inhibition for Uracil-DNA glycosylase (Homo sapiens); item: `O=C1CC[C@@]2(O)[C@H]3Cc4ccc(O)c5c4[C@@]2(CCN3CC2CC2)[C@H]1O5`
Response line: -2.62

Prompt line: Query the reported inhibition for Uracil-DNA glycosylase (Homo sapiens); item: `O=C(Nc1ccc(Cl)nc1)c1ccc(Cl)cc1`
Response line: 1.37

Prompt line: Query the reported inhibition for Uracil-DNA glycosylase (Homo sapiens); item: COc1ccc2c(c1)C(C(=O)N(Cc1ccc(N(C)C)cc1)c1ccc(C(C)C)cc1)CCC2 (centres undefined)
Response line: -2.75

Prompt line: Query the reported inhibition for Uracil-DNA glycosylase (Homo sapiens); item: `CCCNC(=O)c1nnc2c(-c3c(F)cccc3OC)cccc2c1N`
Response line: -1.98
